Cited source: patent US10336761B2

- testedOn: HIS-TGFβR1 T204D (Homo sapiens (Human), UniProt P36897, T204D)
- Sequence (P36897 34-503 T204D): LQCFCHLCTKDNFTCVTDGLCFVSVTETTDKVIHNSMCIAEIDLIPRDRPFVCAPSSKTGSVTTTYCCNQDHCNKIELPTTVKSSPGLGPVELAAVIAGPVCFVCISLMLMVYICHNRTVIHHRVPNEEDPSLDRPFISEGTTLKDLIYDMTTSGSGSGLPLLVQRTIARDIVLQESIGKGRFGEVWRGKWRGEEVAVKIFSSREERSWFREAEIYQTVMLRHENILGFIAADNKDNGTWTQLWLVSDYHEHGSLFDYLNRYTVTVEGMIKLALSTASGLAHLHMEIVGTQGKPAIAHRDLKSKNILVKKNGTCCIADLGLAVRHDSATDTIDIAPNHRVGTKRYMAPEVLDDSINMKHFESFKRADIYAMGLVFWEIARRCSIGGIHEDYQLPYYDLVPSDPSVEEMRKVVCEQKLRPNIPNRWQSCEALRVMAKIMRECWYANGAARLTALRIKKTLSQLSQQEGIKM
- assayRemarks: HTRF probe-displacement assay, HIS-TGFβR1 T204D
- details: 1 hour at room temperature
measuredMetric: pIC50
Units for pIC50: none; it is -log10 of a concentration expressed in mol/L.

# pIC50 of O=C(NC1CCC1)c1cnccc1Nc1nc(-c2cccc(C(F)F)n2)nn2cccc12 = 7.64

Reported pIC50 of CC(=O)Nc1cc(Nc2nc(-c3cccc(C(F)F)n3)nn3cccc23)ccn1 : 9.72

pIC50 measured on Cc1cccc(-c2nc(Nc3ccncc3)c3cc(C(N)=O)cn3n2)n1 = 8.00

Lookup result for O=C(CN1CCOCC1)Nc1cc(Nc2nc(-c3cccc(C(F)(F)F)n3)nn3cccc23)ccn1 ; measured pIC50: 8.59
